Origin of measurements: PubChem BioAssay (NCI)

- Experiment summary: NCI Yeast Anticancer Drug Screen. Data for the bub3 strain (AID 167)
- Condition context: S. cerevisiae bub3 mutant strain, at 50.0 µM, active compounds read high
About 79,000 compounds went through this panel and 15% of them were active in at least one assay; those are over-represented in the sample as a whole.
I'd be grateful if you could share measured growth inhibition for these entries.
Express it in %; write the number only.

Consider the molecule shown here: `CSc1nc2c(c(=O)[nH]1)CC(=O)N2` What is its recorded growth inhibition?
-12.2

I have this molecule here, `NC(=O)CCCc1ccc2oc3ccccc3c2c1` , and I need its recorded growth inhibition.
22.8

Name the reported growth inhibition value associated with the molecule CC1(C)CCC23CCC4(C)C(CCC5C6(C)CCC(=O)C(C)(C)C6CCC54C)C2C1OC3 (stereo unspecified)
-0.7

Find the recorded growth inhibition belonging to `Cc1c([N+](=O)[O-])cc(C(C)(C)C)c(OC(=S)N(C)C)c1[N+](=O)[O-]` and report it.
14.7

Which growth inhibition reading was recorded for the molecule O=C(CC(=O)Nc1ccccc1)NNC(Sc1ccccc1)c1cc(N=Nc2ccc(Br)cc2)ccc1O (stereo unspecified) ?
-2.9

Consider the molecule shown here: C/C=C/C(=O)OCCC(C)OC(=O)/C=C/C (stereo unspecified) What is its recorded growth inhibition?
15.9

Field request: growth inhibition | item: `O=C1c2ccccc2S(=O)(=O)c2cc(-c3nn[nH]n3)ccc21`
-13.7

# input molecule: `C/C(CC(O)(C(F)(F)F)C(F)(F)F)=N\N` ; wanted: its growth inhibition
-4.5

Quick check: growth inhibition of COc1nc(NC2OCC(O)C(O)C2O)c(C(C)=O)c(=O)n1C (stereo unspecified) ?
-19.4

Report growth inhibition for `OCc1ccccc1CN1CCCC1` please.
8.1

Sample `O=S(=O)(O)CCNC(=S)C(=S)NCCS(=O)(=O)O` — what was its growth inhibition?
8.7

Suppose we examine the molecule `COc1ccc2nccc(C)c2c1` ; what growth inhibition value has been reported?
1.5

Recorded growth inhibition for `[N-]=[N+]=NC12CC3C4CC5CC3C(C1)C(C5)C4C2` , please?
-6.15

Which measured growth inhibition value corresponds to O=S(=O)(O)n1ccnc1 (tested in a mixture with another compound) ?
14.7

Return reported growth inhibition; argument: CC#CCC1CCC(OCC)=CC1=O (stereo unspecified)
5.9

Param item = CC(=O)OCCS(=O)Cc1ccccc1 (stereo unspecified) ; retrieve measured growth inhibition.
3.6

Would you mind telling me what growth inhibition value was observed for `Nc1ccc(Nc2ccc([N+](=O)[O-])cc2S(=O)(=O)O)cc1` ?
-7.65

Field request: growth inhibition | item: COC(=O)NC1CC/C=C\CCC1I (stereo unspecified)
22.9

Return reported growth inhibition; argument: `O=c1c2ccccc2[nH]c2ccc(Cl)cc12`
-9.65

Give its growth inhibition value. Item: `NC(=O)NC(=O)NCc1ccccc1`
6.6

// lookup growth inhibition for `COc1ccc(OC)c(N=Nc2cc(OC)ccc2OC)c1`
3.3

Any idea what its growth inhibition is? The molecule is `CCCCCCCCCCCCCCCC/C(C)=C\C(=O)OC`
28.9

Item under review: `COC(=O)c1cc2c(cc1N=Cc1ccccc1Cl)OCO2` . Reported growth inhibition?
-0.85

What measured growth inhibition goes with `O=Cc1ccccc1Cl` ?
10.9

For the molecule `COc1ccc(Cc2cc(O)c(OC)cc2O)cc1` , what growth inhibition is on record?
-3.75

I am curious: what growth inhibition value has been reported for `O=C1S/C(=C2\C(=O)N(CN3CCCCC3)c3ccc(Br)cc32)C(=O)N1CN1CCCCC1` ?
-1.6

----------
- Experiment summary: NCI Yeast Anticancer Drug Screen. Data for the mec2-1 strain (AID 157)
- Condition context: S. cerevisiae mec2-1 strain, at 50.0 µM, active compounds read high
About 79,000 compounds went through this panel and 15% of them were active in at least one assay; those are over-represented in the sample as a whole.
Can you tell me growth inhibition for the items I'm about to list?
Reply with just the number (in %).

Which growth inhibition is reported for this compound? `COc1ccc(/C=C2\CCN=C2c2ccccc2)cc1OC`
-1.85

Quick one: growth inhibition for `CCCOc1ccc(C(=O)O)cc1` ?
7.85

Record request: growth inhibition value, item `CCOc1ccccc1NC(=O)C(=O)c1c(O)c2ccc(O)cc2oc1=O`
9.55

Any idea what its growth inhibition is? The compound is `OC(COc1ccccc1)COc1ccccc1`
2.45

Which growth inhibition reading was recorded for the compound `CCOC(=O)CNc1ccccc1[N+](=O)[O-]` ?
5.8

For the compound shown here, `CCCCCCCCCCCCCCCC/C(C(=O)OC)=C(/O)C(=O)OCC` , give the reported growth inhibition.
-12.1

// lookup growth inhibition for `CCCCOC(=O)C(=O)/C(=C\n1c(=S)[nH]c2cc(C)ccc21)C(=O)C=C(C)C`
-22

Any idea what growth inhibition was measured for O=C(N/C(=C\c1ccccc1)C1Nc2ccccc2C(=O)O1)c1ccccc1 (stereo not given) ?
2.95

If you can, please state the reported growth inhibition value of O=C1CSC(c2cccnc2)N1CCN1C(=O)CSC1c1cccnc1 (stereo not given) .
4.15

For the compound `CN(C=C(c1ccccc1)c1ccccc1)c1ccccc1` , what growth inhibition is on record?
-7.85

# get_value(readout='growth inhibition', item= `COC(=O)c1cc(C)n(C)c(=O)c1CNS(=O)(=O)c1ccc(C)cc1` )
6.45

Find the recorded growth inhibition belonging to `O=[N+]([O-])c1ccc(N=C/C=C/Nc2ccc([N+](=O)[O-])cc2)cc1` and report it.
0.7

Quick one: growth inhibition of O=C1/C(=C/c2ccc3c(c2)OCO3)CCC1CN1CCOCC1 (stereo not given) ?
94.1

I'd like to know its growth inhibition. The compound in question is `COc1ccccc1NC(=O)C1=C(C)NC(C)=C(C(=O)Nc2ccccc2OC)C1c1ccccc1OC`
-6.65

Any idea what its growth inhibition is? The compound is `CC(=O)Nc1cccc(Cl)c1`
-24.5

Requested read-out: growth inhibition. Entry: `CC1(C)CCCC(C)(C)C1=NO`
-5.6

Dear colleague, I am looking for the recorded growth inhibition of the following compound: `CCC(=O)Nc1ccc(C)cc1C`
12.9

Bench note: what growth inhibition did CC1(C)OCC(C2OC3OC(C)(C)OC3C2c2ccccc2)O1 (stereo not given) show?
-9

Consider the compound C=CCOCC(COC(=O)CCCCCCCCCCCCCCCCC)OCC=C (stereo not given) and give its measured growth inhibition.
-2.85

# lookup: growth inhibition of `COC(=O)N/N=C(\C)c1sc(-c2nc(C)c(/C(C)=N/NC(=O)OC)s2)nc1C`
0.95

Find the recorded growth inhibition belonging to `CC(=O)Oc1cc(C(C)C)ccc1C` and report it.
-3.75

// lookup growth inhibition for `Clc1ccc(OCCSCCOc2ccc(Cl)cc2)cc1`
-17.8

# growth inhibition lookup, item CCOC(=O)C(NC(=O)CC(C)C)(NC(C)C)C(F)(F)F (stereo not given)
-2.25

Requested field: growth inhibition. Item: `NCCCCCC(N)=O`
32.5

Which measured growth inhibition value corresponds to COc1cc2c(cc1OC)C1CCN3C(=O)CCC3[N+]1(C)CC2 (stereo not given) ?
-1.05

----------
Can you tell me growth inhibition for the items I'm about to list?
- Experiment summary: NCI Yeast Anticancer Drug Screen. Data for the mlh1 rad18 strain (AID 175)
- Condition context: S. cerevisiae mlh1 rad18 strain growth inhibition; at 50.0 µM; active compounds read high
Compounds without any hit were thinned out: in the full panel of roughly 79,000, 15% have a hit.
Your answer should be a plain number; it is taken to be in %.

growth inhibition for CC(C)OP(=O)(c1ccccc1)c1ccc2c(c1)OCCOCCOCCOCCO2 (configuration not stated) ?
24.7

Entry `Cc1nc2ccccc2c(=O)n1NC(=O)c1ccc([N+](=O)[O-])cc1` : reported growth inhibition = ?
-19.1

Entry `O=C(NCO)NCOCn1c(=O)n(CO)c(=O)n(CO)c1=O` has what growth inhibition?
-15.9

Please look up its growth inhibition: `Cc1ccc2ccc(-c3cc4ccccc4s3)nc2c1`
-6.1

Bench note: what growth inhibition did `Cc1ccccc1NC(=O)CSc1nnc(-c2ccc(N=Cc3ccc(Cl)cc3)cc2)o1` show?
-17.8

Please give the measured growth inhibition for this compound: `Oc1ccc2ccccc2c1/C=N/N=C/c1c(O)ccc2ccccc12`
3.8

For the compound `Cc1ccccc1-[n+]1noc(N)n1` , what growth inhibition is on record?
12.6

Entry `COc1ccc(CCc2nccn2C)cc1OC` : reported growth inhibition = ?
-32.2

What value of growth inhibition has been reported for the following compound? `O=C(O)C1(c2ccccc2)CC1`
7.85

Fill in: growth inhibition of `Clc1ccc(SCSc2ccc(Cl)cc2)cc1` is ___
-0.85

Param item = `Cc1ccc(C2(c3ccc(C)cc3)OCC(C)(CBr)CO2)cc1` ; retrieve measured growth inhibition.
-14.5

Quick one: growth inhibition for CCCCCCCCCCCCCCCCOCC(CCl)OP(=O)(O)OP(=O)(O)OCC1OC(n2ccc(N)nc2=O)C(O)C1O (configuration not stated) ?
-95.4
